System: Vero-E6
Assay: primary screen, phospholipidosis by LipidTOX staining; higher = more effect of the substance
Settings: 10 µM
Out of some 5,400 compounds screened, about 190 (3.5%) showed an effect of 50% or more. This is one part of a sample in which strong results are shown more often than they occur.

# COMPOUND, result_ITMP [%]
records = [
    ("CC1(C)S[C@@H]2[C@H](NC(=O)[C@H](NC(=O)N3CCN(S(C)(=O)=O)C3=O)c3ccccc3)C(=O)N2[C@H]1C(=O)[O-]", -2.91),
    ("CCNC(=O)N1CCN(CCCC(c2ccc(F)cc2)c2ccc(F)cc2)CC1", 8.88),
    ("C[C@@H](Oc1cc(-n2cnc3ccc(CN4CCN(C)CC4)cc32)sc1C(N)=O)c1ccccc1C(F)(F)F", 75.1),
    ("COc1cc2ncn(-c3cc(OCc4ccccc4C(F)(F)F)c(C(N)=O)s3)c2cc1OC", -2.1),
    ("Cc1cccc(C)c1NC(=O)CN1CCCCCC1", -0.91),
    ("CC(C)Cc1ccc(C(C)C(=O)O)cc1 (stereo not drawn) [R4A_0001344_001 / SPE_M64062803]", -5.52),
    ("Cc1onc(-c2ccccc2)c1C(=O)NC1C(=O)N2[C@@H]1SC(C)(C)[C@@H]2C(=O)[O-] (stereo partly drawn)", -4.06),
    ("O[C@@H]1[C@H](O)[C@@H](CCl)O[C@H]1n1cnc2c(NC3CC4CCC3C4)ncnc21 (mixture of isomers)", -1.27),
    ("O=[N+]([O-])O[C@@H]1CO[C@H]2[C@@H]1OC[C@@H]2O", -9.17),
]
